- assay method text: qHTS for induction of synthetic lethality in tumor cells producing 2HG: qHTS for the HT-1080-NT fibrosarcoma cell line;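 also: NT is the 2HG producing partner of a matched IDH1 knockdown line; nearly all actives have a fitted effect of over 55% in size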
- applied conditions: HT-1080-NT fibrosarcoma viability, CellTiter-Glo ATP luminescence, 48 h; series mostly up to 46.1 µM
Screen size: about 360,000 compounds; about 6,000 (1.7%) were called active. Another 8% or so got no clear call; they are omitted. Calls follow the shape of the dose curve; as a rule, active = well fitted cell-killing curve with a large enough effect; inconclusive = small, poorly fitted or top-dose-only effect, or effect the other way; inactive = flat fitted curve, though single readings scatter. The entries come from a sample that favours actives as a whole.
Respond with a class label; see t for active, f for inactive

The examples below pair each entry with its known result.
{"compound": "NC(=O)CSc1nnc(NC(=O)c2ccc(Br)o2)s1", "group label": "f"}
{"compound": "CCOC1=C2[C@H]([C@H]3C(=O)N(c4ccccc4)C(=O)[C@H]3C1)[C@@H](c1ccccc1)N(S(=O)(=O)c1ccc(C)cc1)[C@H]2c1ccccc1", "group label": "f"}
{"compound": "CN(C)CCN(C(=O)CN1C(=O)c2ccccc2C1=O)c1nc2cc3c(cc2s1)OCCO3", "group label": "f"}
{"compound": "COc1ccc(CNc2nccs2)cc1", "group label": "f"}
{"compound": "COCCCNC(=O)c1cccc2c(-c3ccc(O)c(OC)c3)coc12", "group label": "f"}

Problem: How did this test come out for CCC(=O)N1Cc2cc(C(=O)NCc3cccc(F)c3)nc(-c3cccc(C4=CCCC4)c3)c2[C@H]1CCO ?
Result: f

Problem: Hi, sorry to bother you, what did the test record for CN1CCN(C(=O)c2ccc(-c3cc4nc(NCc5cccnc5)n(C)c(=O)c4s3)cc2)CC1 ?
Result: f

----------
- assay method text: qHTS for induction of synthetic lethality in tumor cells producing 2HG: qHTS for the HT-1080-NT fibrosarcoma cell line;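 also: NT is the 2HG producing partner of a matched IDH1 knockdown line; nearly all actives have a fitted effect of over 55% in size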
- applied conditions: HT-1080-NT fibrosarcoma viability, CellTiter-Glo ATP luminescence, 48 h; series mostly up to 46.1 µM
Among all 360,000 compounds or so, about 6,000 (1.7%) were called active. Another 8% or so got no clear call; they are omitted. The full list was thinned out, with actives kept by preference.

{"compound": "CC(C)(C)Cc1c(C2CCCCC2)nc2ccc(Br)cn12", "outcome": "inactive"}
{"compound": "CC1(C(=O)Nc2ccc3c(c2)OCCO3)CCN1C(=O)Cc1cc(F)ccc1F (stereo not drawn)", "outcome": "inactive"}
{"compound": "COc1cccc(/C=N/NC(=O)CNC(=O)c2ccc(S(=O)(=O)N3CCOCC3)cc2)c1OC", "outcome": "inactive"}

----------
- assay method text: qHTS for induction of synthetic lethality in tumor cells producing 2HG: qHTS for the HT-1080-NT fibrosarcoma cell line;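 also: NT is the 2HG producing partner of a matched IDH1 knockdown line; nearly all actives have a fitted effect of over 55% in size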
- applied conditions: HT-1080-NT fibrosarcoma viability, CellTiter-Glo ATP luminescence, 48 h; series mostly up to 46.1 µM
In all, about 360,000 compounds went through this assay and about 6,000 (1.7%) were called active. Another 8% or so got no clear call; they are omitted. Calls come from the whole dose curve; as a rule, active = well fitted cell-killing curve with a large enough effect; inconclusive = small, poorly fitted or top-dose-only effect, or effect the other way; inactive = flat fitted curve, though single readings scatter. The full list was thinned out, with actives kept by preference.
// allowed return values: active, inactive

{"compound": "COc1ccc(Nc2ccc3ccccc3c2)cc1", "group label": "inactive"}

Problem: Per the records of this test, what outcome belongs to O=C(NCCc1ccccc1)c1cccc(NC(=O)c2ccccc2)c1 ?
Result: inactive

Problem: Could you check what this test reported for COc1ccc(C2=Nc3ccccc3NC(=O)C2N(C(=O)c2cc3ccccc3[nH]2)c2ccccc2)cc1 (stereo unspecified) ?
Result: inactive

Problem: Assay outcome for COc1ccc(S(=O)(=O)/N=C2\C=C(NS(=O)(=O)c3ccccc3)C(=O)c3ccccc32)cc1 : what was it?
Result: active
